assay_name: AUC (0 to infinity) in Sprague-Dawley rat at 3 mg/kg, po via gavage measured up to 24 hrs by LC-MS analysis
Type: ADME, organism-based
Parameters: route oral, dose 3 mg/kg, time <=24
condition_description: in vivo

| smiles_string | AUC(0-inf) (ng·h/mL) |
| --- | --- |
| Nc1ncnc2[nH]cc(-c3cc(F)c(NC(=O)c4cn(CC5CCOCC5)cc(-c5ccc(F)cc5)c4=O)cc3F)c12 | 385 |
| CC(C)n1cc(C(=O)Nc2cc(F)c(-c3c[nH]c4ncnc(N)c34)cc2F)c(=O)c(-c2ccc(F)cc2)c1 | 44300 |
